Consider the following compounds and their measured log10(Ki) readings.
# MEASURED ON: CDK4/cyclin D1 (Homo sapiens, UniProt P11802)
# Sequence (P11802 whole entry, species assumed): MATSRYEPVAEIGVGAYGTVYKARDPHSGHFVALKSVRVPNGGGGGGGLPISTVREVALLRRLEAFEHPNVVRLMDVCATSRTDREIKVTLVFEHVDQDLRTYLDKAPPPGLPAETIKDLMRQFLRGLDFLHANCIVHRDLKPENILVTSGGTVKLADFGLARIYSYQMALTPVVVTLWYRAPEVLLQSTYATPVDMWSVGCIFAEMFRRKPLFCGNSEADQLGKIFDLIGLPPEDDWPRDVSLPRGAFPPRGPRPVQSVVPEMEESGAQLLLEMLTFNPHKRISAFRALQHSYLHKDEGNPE
# Sequence (P24385 whole entry partner, species assumed): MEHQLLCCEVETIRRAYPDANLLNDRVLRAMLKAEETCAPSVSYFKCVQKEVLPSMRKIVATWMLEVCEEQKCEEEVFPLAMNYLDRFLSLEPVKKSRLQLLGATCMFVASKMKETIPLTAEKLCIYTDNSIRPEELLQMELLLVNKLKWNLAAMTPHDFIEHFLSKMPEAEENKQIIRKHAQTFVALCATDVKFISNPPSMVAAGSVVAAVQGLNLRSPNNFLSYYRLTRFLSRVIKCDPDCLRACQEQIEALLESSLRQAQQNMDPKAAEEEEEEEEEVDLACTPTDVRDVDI
# TEST METHOD NOTES: Kinase assay CDK4/cyclin D1
# MEASUREMENT SETUP: Ki calculated (Cheng-Prusoff) from experimentally determined IC50 and Km,ATP; read-out: Kinase Inhibition Ki CDK4 - cyclin D1
# Description: The compounds from the examples above were investigated for their ability to inhibit the enzymatic activity of various protein kinases. This was achieved by measurement of incorporation of radioactive phosphate from ATP into appropriate polypeptide substrates. […] After washing 3 times with 75 mM aq orthophosphoric acid, plates were dried, scintillant added and incorporated radioactivity measured in a scintillation counter (TopCount, Packard Instruments, Pangbourne, Berks, UK). […]
READOUT TYPE: log10(Ki) (log10 of the value in µM)

>>> value_measured("Cc1ccc(Nc2nccc(-c3sc(=O)n(C)c3C)n2)cc1I")
0.32
>>> value_measured("CCn1c(C)c(-c2ccnc(Nc3cccc(O)c3)n2)sc1=O")
-0.89
>>> value_measured("CCn1c(C)c(-c2ccnc(Nc3ccc([N+](=O)[O-])cc3)n2)sc1=O")
0.08
>>> value_measured("COc1ccc(Nc2nccc(-c3sc(=O)n(CCC(C)C)c3C)n2)cn1")
0.30
>>> value_measured("COc1ccc(Nc2nccc(-c3sc(=O)n(C)c3C)n2)cc1")
-0.24
>>> value_measured("CCn1c(C)c(-c2ccnc(Nc3ccc(N(C)C)cc3)n2)sc1=O")
-0.55
>>> value_measured("Cc1c(-c2ccnc(Nc3ccc(N4CCN(C)CC4)cc3)n2)sc(=O)n1C")
-0.57
>>> value_measured("CCn1c(C)c(-c2ccnc(Nc3ccc(Cl)c(C(=O)O)c3)n2)sc1=O")
1.38
>>> value_measured("Cc1c(-c2ccnc(Nc3ccc(N4CCN(Cc5ccccc5)CC4)cc3)n2)sc(=O)n1C")
-1.00

====

Consider the following molecules and their measured pIC50 readings.
# MEASURED ON: DYRK1A (Homo sapiens, UniProt Q13627)
# TEST METHOD NOTES: DYRK1A in vitro kinase assay
# MEASUREMENT SETUP: recombinant human DYRK1A, 100 μM ATP
pIC50: −log10 of the molar value.
READOUT TYPE: pIC50

>>> value_measured("CNc1cc(Nc2nccc(-c3sc(=O)n(C)c3C)n2)cc(C(F)(F)F)c1")
6.83
>>> value_measured("CCNS(=O)(=O)c1cccc(Nc2nccc(-c3sc(=O)n(C)c3C)n2)c1")
7.29
>>> value_measured("Cc1c(-c2ccnc(Nc3cc(Br)cc(C(F)(F)F)c3)n2)sc(=O)n1C")
7.14
>>> value_measured("CC(=O)Nc1cc(Nc2nccc(-c3sc(=O)n(C)c3C)n2)cc(C(F)(F)F)c1")
7.11
>>> value_measured("Cc1c(-c2ccnc(Nc3ccc(Cl)c(C(F)(F)F)c3)n2)sc(=O)n1C")
6.45
>>> value_measured("COCCNS(=O)(=O)c1cccc(Nc2nccc(-c3sc(=O)n(C)c3C)n2)c1")
7.72
>>> value_measured("Cc1c(-c2ccnc(Nc3cccc(S(=O)(=O)NCCO)c3)n2)sc(=O)n1C")
7.59

====

Consider the following compounds and their measured Ki readings.
# MEASURED ON: CDK9/cyclin T1 (Homo sapiens)
# Sequence (P50750 whole entry, species assumed): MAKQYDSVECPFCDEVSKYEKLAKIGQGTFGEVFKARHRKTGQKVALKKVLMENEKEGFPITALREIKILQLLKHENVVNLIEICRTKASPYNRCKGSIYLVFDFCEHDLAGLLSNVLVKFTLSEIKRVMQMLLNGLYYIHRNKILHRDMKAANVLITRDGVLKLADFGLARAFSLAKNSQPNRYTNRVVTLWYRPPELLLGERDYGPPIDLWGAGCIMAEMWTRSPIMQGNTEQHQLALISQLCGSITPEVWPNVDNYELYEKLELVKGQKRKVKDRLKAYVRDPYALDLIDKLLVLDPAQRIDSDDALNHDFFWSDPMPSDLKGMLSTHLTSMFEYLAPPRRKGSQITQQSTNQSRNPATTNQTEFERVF
# Sequence (O60563 whole entry partner, species assumed): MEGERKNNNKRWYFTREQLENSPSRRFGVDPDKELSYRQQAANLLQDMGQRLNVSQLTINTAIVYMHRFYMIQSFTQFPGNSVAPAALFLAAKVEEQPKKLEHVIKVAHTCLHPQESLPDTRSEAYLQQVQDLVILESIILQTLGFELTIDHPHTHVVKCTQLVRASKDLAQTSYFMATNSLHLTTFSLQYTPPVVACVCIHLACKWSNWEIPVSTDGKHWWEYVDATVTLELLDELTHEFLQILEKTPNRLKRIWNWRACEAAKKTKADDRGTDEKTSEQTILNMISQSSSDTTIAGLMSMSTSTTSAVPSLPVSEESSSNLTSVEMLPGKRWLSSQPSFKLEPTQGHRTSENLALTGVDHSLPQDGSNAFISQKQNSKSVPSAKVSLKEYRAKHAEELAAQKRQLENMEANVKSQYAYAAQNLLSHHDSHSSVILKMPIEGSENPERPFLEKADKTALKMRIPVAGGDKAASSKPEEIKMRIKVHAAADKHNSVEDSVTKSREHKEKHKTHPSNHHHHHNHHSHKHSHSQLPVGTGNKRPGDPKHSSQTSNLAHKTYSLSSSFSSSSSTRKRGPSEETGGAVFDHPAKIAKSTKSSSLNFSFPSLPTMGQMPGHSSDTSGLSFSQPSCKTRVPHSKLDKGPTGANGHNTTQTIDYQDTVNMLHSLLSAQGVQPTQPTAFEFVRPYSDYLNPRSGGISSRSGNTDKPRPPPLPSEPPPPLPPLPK
# TEST METHOD NOTES: Kinase assay CDK9/cyclin T1
# MEASUREMENT SETUP: Ki calculated (Cheng-Prusoff) from experimentally determined IC50 and Km,ATP; read-out: Kinase Inhibition Ki CDK9 - cyclin T1
READOUT TYPE: Ki (nM)

>>> value_measured("Cc1c(-c2ccnc(Nc3cccc([N+](=O)[O-])c3)n2)sc(=O)n1C")
0.3
>>> value_measured("Cc1c(-c2ccnc(Nc3ccc(N4CCNCC4)cc3)n2)sc(=O)n1C")
10
>>> value_measured("Cc1c(-c2ccnc(Nc3cccc(S(N)(=O)=O)c3)n2)sc(=O)n1C")
0.3
>>> value_measured("CNc1cc(Nc2nccc(-c3sc(=O)n(C)c3C)n2)cc(C(F)(F)F)c1")
21
>>> value_measured("Cc1[nH]c(=O)sc1-c1ccnc(Nc2cccc([N+](=O)[O-])c2)n1")
2.4
>>> value_measured("CCn1c(C)c(-c2ccnc(Nc3ccc(F)cc3)n2)sc1=O")
11
>>> value_measured("CCn1c(C)c(-c2ccnc(Nc3ccc(N(C)C)cc3)n2)sc1=O")
690
>>> value_measured("Cc1c(-c2ccnc(Nc3cccc(S(=O)(=O)NC(C)C)c3)n2)sc(=O)n1C")
50
>>> value_measured("Cc1ccc(Nc2nccc(-c3sc(=O)n(C)c3C)n2)cc1C(F)(F)F")
170

====

# Tested on: glycogen synthase
# TEST METHOD NOTES: Glycogen synthase activation in HEK293 cells
# Format: cell-based
# MEASUREMENT SETUP: maximum fold induction normalised to 40 mM LiCl
# Experimental: HEK293 cells, mouse adipocytes or rat myotubes were treated in 10-cm Petri dishes with different concentrations of GSK3 inhibitor example compounds for 90 minutes. […] The activity of glycogen synthase was determined in the soluble fraction at two different concentrations of […]—low (0.1 mM) and high (10 mM). […] Subsequently, 100 μL of scintillation liquid was added, and plates were sealed and counted in a Packard Topcounter. […]
Consider the following molecules and their measured Max FI (% to LiCl) readings.
READOUT TYPE: Max FI (% to LiCl)

>>> value_measured("Cc1c(-c2ccnc(Nc3cc(Br)cc(C(F)(F)F)c3)n2)sc(=O)n1C")
"96 % to LiCl"
>>> value_measured("Cc1c(-c2ccnc(Nc3cccc(S(=O)(=O)NCCO)c3)n2)sc(=O)n1C")
"108 % to LiCl"
>>> value_measured("COCCNS(=O)(=O)c1cccc(Nc2nccc(-c3sc(=O)n(C)c3C)n2)c1")
"85 % to LiCl"
>>> value_measured("CCNS(=O)(=O)c1cccc(Nc2nccc(-c3sc(=O)n(C)c3C)n2)c1")
"117 % to LiCl"
>>> value_measured("CC(=O)Nc1cc(Nc2nccc(-c3sc(=O)n(C)c3C)n2)cc(C(F)(F)F)c1")
"107 % to LiCl"
>>> value_measured("CNc1cc(Nc2nccc(-c3sc(=O)n(C)c3C)n2)cc(C(F)(F)F)c1")
"88 % to LiCl"

====

# System: glycogen synthase
# TEST METHOD NOTES: Glycogen synthase activation in mouse adipocytes
# Format: cell-based
# MEASUREMENT SETUP: Adipocyte
# Protocol: 3T3-L1 mouse pre-adipocytes were grown in DMEM medium supplemented with 10% foetal calf serum (FCS) and penicillin/streptomycin until fully confluent. […] HEK293 cells, mouse adipocytes or rat myotubes were treated in 10-cm Petri dishes with different concentrations of GSK3 inhibitor example compounds for 90 minutes. […] The activity of glycogen synthase was determined in the soluble fraction at two different concentrations of […]—low (0.1 mM) and high (10 mM). […]
pEC50: −log10 of the molar value.
Consider the following compounds and their measured pEC50 readings.
READOUT TYPE: pEC50

>>> value_measured("Cc1c(-c2ccnc(Nc3cc(Br)cc(C(F)(F)F)c3)n2)sc(=O)n1C")
5.02
>>> value_measured("CC(=O)Nc1cc(Nc2nccc(-c3sc(=O)n(C)c3C)n2)cc(C(F)(F)F)c1")
6.83
>>> value_measured("CCNS(=O)(=O)c1cccc(Nc2nccc(-c3sc(=O)n(C)c3C)n2)c1")
6.36
>>> value_measured("COCCNS(=O)(=O)c1cccc(Nc2nccc(-c3sc(=O)n(C)c3C)n2)c1")
5.32
>>> value_measured("Cc1c(-c2ccnc(Nc3cccc(S(=O)(=O)NCCO)c3)n2)sc(=O)n1C")
5.66

====

# MEASURED ON: CDK1/cyclin B (Homo sapiens, UniProt P06493)
# Sequence (P06493 whole entry, species assumed): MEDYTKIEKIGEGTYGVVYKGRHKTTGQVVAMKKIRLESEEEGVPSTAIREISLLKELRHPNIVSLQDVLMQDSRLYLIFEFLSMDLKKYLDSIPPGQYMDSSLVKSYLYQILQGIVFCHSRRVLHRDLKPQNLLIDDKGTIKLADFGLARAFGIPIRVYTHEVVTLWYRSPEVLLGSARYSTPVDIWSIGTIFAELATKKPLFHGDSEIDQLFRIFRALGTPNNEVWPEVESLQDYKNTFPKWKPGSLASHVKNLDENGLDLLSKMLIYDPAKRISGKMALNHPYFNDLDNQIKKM
# Sequence (P14635 whole entry partner, species assumed): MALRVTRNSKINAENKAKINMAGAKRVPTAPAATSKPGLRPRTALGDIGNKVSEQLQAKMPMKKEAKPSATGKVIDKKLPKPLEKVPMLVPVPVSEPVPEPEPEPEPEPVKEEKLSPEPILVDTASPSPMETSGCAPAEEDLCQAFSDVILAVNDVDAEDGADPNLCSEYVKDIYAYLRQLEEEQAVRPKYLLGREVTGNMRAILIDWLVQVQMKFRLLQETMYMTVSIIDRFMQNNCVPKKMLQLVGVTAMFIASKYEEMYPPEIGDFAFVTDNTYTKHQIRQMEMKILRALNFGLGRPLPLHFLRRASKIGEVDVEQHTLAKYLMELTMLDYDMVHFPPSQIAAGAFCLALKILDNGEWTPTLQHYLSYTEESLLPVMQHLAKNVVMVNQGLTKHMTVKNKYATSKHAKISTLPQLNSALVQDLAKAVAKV
# TEST METHOD NOTES: Kinase assay CDK1/cyclin B (radioactive phosphate incorporation)
# MEASUREMENT SETUP: Ki calculated (Cheng-Prusoff) from experimentally determined IC50 and Km,ATP; read-out: Kinase Inhibition Ki CDK1 - cyclin B
# Method: The compounds from the examples above were investigated for their ability to inhibit the enzymatic activity of various protein kinases. This was achieved by measurement of incorporation of radioactive phosphate from ATP into appropriate polypeptide substrates. […] After washing 3 times with 75 mM aq orthophosphoric acid, plates were dried, scintillant added and incorporated radioactivity measured in a scintillation counter (TopCount, Packard Instruments, Pangbourne, Berks, UK). […]
Recorded Ki determines the label; the label ranges are low (below 0.3 µM), middle (0.3 µM to below 1 µM), high (1 µM or more)

>>> cat("CCn1c(C)c(-c2ccnc(Nc3cccc([N+](=O)[O-])c3)n2)sc1=O")
"low"
>>> cat("CC(=O)N1CCN(c2cccc(Nc3nccc(-c4sc(=O)n(C)c4C)n3)c2)CC1")
"middle"
>>> cat("CCn1c(C)c(-c2ccnc(Nc3ccc(Cl)c(C)c3)n2)sc1=O")
"high"
>>> cat("Cc1c(-c2ccnc(Nc3cccc(C#N)c3)n2)sc(=O)n1C")
"middle"
>>> cat("COc1ccc(Nc2nccc(-c3sc(=O)n(CCC(C)C)c3C)n2)cn1")
"high"
>>> cat("Cc1c(-c2ccnc(Nc3cccc(S(N)(=O)=O)c3)n2)sc(=O)n1C")
"low"
>>> cat("Cc1c(-c2ccnc(Nc3ccc(N4CCN(C)CC4)cc3)n2)sc(=O)n1C")
"high"
>>> cat("Cc1ccc(Nc2nccc(-c3sc(=O)n(C)c3C)n2)cc1N")
"low"
>>> cat("Cc1c(-c2ccnc(Nc3ccc(S(=O)(=O)NCc4ccccc4)cc3)n2)sc(=O)n1C")
"high"
>>> cat("Cc1c(-c2ccnc(Nc3ccc(N4CCNCC4)cc3)n2)sc(=O)n1C")
"middle"
>>> cat("Cc1ccc(Nc2nccc(-c3sc(=O)[nH]c3C)n2)cc1[N+](=O)[O-]")
"low"
>>> cat("CCn1c(C)c(-c2ccnc(Nc3ccc(N(C)C)cc3)n2)sc1=O")
"high"
>>> cat("Cc1c(-c2ccnc(Nc3ccc(S(=O)(=O)NCCO)cc3)n2)sc(=O)n1C")
"low"
>>> cat("Cc1c(-c2ccnc(Nc3ccc(Cl)c(CO)c3)n2)sc(=O)n1C")
"low"
>>> cat("Cc1ccc(Nc2nccc(-c3sc(=O)n(C)c3C)n2)cc1C(F)(F)F")
"high"
>>> cat("Cc1c(-c2ccnc(Nc3ccc(Cl)nc3)n2)sc(=O)n1CCC(C)C")
"high"
>>> cat("CCn1c(C)c(-c2ccnc(Nc3ccc(Cl)c(C(=O)O)c3)n2)sc1=O")
"high"
>>> cat("Cc1cc(Nc2nccc(-c3sc(=O)n(C)c3C)n2)ccc1F")
"middle"
>>> cat("Cc1c(-c2ccnc(Nc3cccc(S(=O)(=O)NCCO)c3)n2)sc(=O)n1C")
"middle"
>>> cat("CC(=O)Nc1cc(Nc2nccc(-c3sc(=O)n(C)c3C)n2)cc(C(F)(F)F)c1")
"middle"
>>> cat("Cc1c(-c2ccnc(Nc3cccc(CNC(=O)c4ccccc4)c3)n2)sc(=O)n1C")
"middle"
>>> cat("Cc1c(-c2ccnc(Nc3ccc(N4CCNCC4)c(Cl)c3)n2)sc(=O)n1C")
"low"
>>> cat("CC(=O)NCc1ccc(Nc2nccc(-c3sc(=O)n(C)c3C)n2)cc1")
"low"
>>> cat("CCn1c(C)c(-c2ccnc(Nc3ccc(C)c(O)c3)n2)sc1=O")
"low"
>>> cat("Cc1c(-c2ccnc(Nc3ccc(N4CCOCC4)cc3)n2)sc(=O)n1C")
"high"
